Hey, just so you know, these numbers are from patent US20060069055.

# tgt: NF-kB p65/p50 heterodimer (Homo sapiens, UniProt Q04206;P19838 Q04206:1-551,P19838:1-433)
# Sequence (Q04206 whole entry, chain 1 of 2): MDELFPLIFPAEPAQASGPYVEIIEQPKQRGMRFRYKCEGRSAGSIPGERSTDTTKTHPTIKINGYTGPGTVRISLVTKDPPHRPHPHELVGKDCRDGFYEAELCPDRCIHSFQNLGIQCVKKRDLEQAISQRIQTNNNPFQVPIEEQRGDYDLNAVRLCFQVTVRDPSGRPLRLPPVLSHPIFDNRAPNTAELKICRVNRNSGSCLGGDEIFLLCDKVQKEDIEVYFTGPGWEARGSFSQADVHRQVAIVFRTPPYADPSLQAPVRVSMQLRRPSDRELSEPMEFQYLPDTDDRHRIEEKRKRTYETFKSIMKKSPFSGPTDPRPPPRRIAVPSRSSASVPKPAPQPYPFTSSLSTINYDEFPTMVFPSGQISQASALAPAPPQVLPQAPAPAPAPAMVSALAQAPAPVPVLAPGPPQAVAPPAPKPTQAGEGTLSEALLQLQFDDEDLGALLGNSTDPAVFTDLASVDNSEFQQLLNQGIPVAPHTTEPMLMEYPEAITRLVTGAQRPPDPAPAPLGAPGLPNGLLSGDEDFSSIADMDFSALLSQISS
# Sequence (P19838 1-433, chain 2 of 2): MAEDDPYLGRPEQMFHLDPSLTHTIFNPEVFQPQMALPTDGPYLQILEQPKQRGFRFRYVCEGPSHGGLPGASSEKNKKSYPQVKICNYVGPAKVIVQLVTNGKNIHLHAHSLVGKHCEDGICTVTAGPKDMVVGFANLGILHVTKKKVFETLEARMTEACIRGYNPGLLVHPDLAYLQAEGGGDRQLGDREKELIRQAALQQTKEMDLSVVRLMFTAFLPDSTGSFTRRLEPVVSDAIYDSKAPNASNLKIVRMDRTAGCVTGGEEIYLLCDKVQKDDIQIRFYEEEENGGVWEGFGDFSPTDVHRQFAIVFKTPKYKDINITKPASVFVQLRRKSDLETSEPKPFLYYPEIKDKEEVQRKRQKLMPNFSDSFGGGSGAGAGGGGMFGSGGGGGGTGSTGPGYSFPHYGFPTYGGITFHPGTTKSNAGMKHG
# protocol_notes: EMSA
# condition_summary: protein: extract; tags: nuclear extract of LPS-stimulated THP-1 cells; dsDNA, one strand shown
Mark criterion met only for IC50 values smaller than 90 fold molar excess; exact matches and larger values are criterion not met.

Q: Lab log: compare recorded IC50 with 90 fold molar excess; is it strictly lower for `TTGAGGACTTTCCAGGC` ?
Result: criterion met

Q: Lab log: compare recorded IC50 with 90 fold molar excess; is it strictly lower for `TGAGGACTTTCCAGGC` ?
Result: criterion not met

Q: Lab log: compare recorded IC50 with 90 fold molar excess; is it strictly lower for `AGTTGAGGATTTCCAGGC` ?
Result: criterion met

Q: Lab log: compare recorded IC50 with 90 fold molar excess; is it strictly lower for `ATGGACTTTCCGT` ?
Result: criterion met
